- target_under_test: Tyrosyl-tRNA synthetase, putative (Trypanosoma cruzi (strain CL Brener)) (UniProt Q4DSP6)
- Sequence (Q4DSP6 as listed by the source): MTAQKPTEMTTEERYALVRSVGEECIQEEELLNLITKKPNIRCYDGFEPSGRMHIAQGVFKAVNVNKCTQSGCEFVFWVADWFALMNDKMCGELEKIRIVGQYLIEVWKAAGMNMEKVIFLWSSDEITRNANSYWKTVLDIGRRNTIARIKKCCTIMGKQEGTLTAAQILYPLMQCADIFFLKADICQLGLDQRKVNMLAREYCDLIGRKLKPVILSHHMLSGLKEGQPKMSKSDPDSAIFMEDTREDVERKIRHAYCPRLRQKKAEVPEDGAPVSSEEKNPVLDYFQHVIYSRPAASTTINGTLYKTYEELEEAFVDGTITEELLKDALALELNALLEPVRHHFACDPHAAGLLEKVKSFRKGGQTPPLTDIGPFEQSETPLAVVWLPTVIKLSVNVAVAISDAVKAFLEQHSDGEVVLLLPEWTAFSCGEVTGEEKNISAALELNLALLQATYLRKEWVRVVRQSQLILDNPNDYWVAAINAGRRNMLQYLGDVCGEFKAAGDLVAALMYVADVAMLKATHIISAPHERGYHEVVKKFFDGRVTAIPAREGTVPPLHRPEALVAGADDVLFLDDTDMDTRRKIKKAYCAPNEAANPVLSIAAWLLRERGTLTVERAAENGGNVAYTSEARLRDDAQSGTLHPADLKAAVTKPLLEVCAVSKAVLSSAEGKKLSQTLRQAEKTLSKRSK
- assay_text: Trypanosoma cruzi tyrosyl tRNA synthetase (TcYRS) _High Tyrosine SOP; further: in the data most compounds retested in dose-response had high values
- Format: functional
- Set-up: scale not given: direction of the effect not stated beside the values
- test_parameters: 30 µM
Below, each of the compounds is paired with its reported Percent Effect value.
readout_label: Percent Effect (%)

INSERT INTO measurements (compound, observed_result) VALUES
  ('CC(C)n1c(C2CCCN(CCS(C)(=O)=O)C2)nc2ccccc21 (configuration not stated)', 5.94),
  ('Cc1cnn(CC2CN(Cc3nc(N)c4ccccc4n3)CCO2)c1 (configuration not stated)', 4.76),
  ('O=C(NCCNc1ncccn1)C1CCN(c2ncccn2)CC1', -10.9),
  ('COc1ccc(OCC(=O)NS(=O)(=O)c2cc(F)ccc2F)cc1', -3.7),
  ('COc1ccc(C(C)=O)c(OCC(=O)NC(C)c2ccc(F)cc2)c1 (configuration not stated)', 0),
  ('COCC(=O)N1CCC2(CC1)COCCN2CCN(C)C', 3.12),
  ('COc1cccc(S(=O)(=O)CCN2CCCN(C(C)=O)CC2)c1', 1.64),
  ('O=C(CCCc1cn[nH]c1)N1CCOCC(O)C1 (configuration not stated)', 5.38),
  ('Cc1nn(C)c(N(C)C)c1CNC1CCOc2c(F)cccc21 (configuration not stated)', 6.37),
  ('CCC(C)(C)NC(=O)C1CC(=O)N(CC2CC2)C1 (configuration not stated)', 2.97),
  ('c1csc(CN2CCn3c(Cn4cncn4)cnc3C2)n1', 2.13),
  ('CC(C)CCOCCNC(=O)Nc1cc(C(F)(F)F)c[nH]c1=O', 6.93);

* * *

- target_under_test: Sialic acid-binding Ig-like lectin 9 (Homo sapiens)
- assay_text: Hs-Siglec9 ALPHAscreen SOP 20170721
- Set-up: scale not given: direction of the effect not stated beside the values
- test_parameters: 10 µM
readout_label: Percent Effect

INSERT INTO measurements (compound, readout_label, observed_result) VALUES
  ('CN1C(=O)CC(C(=O)O)C12CCN(Cc1ccc(F)cc1Cl)CC2 (stereo not drawn)', 'Percent Effect', '5.97%'),
  ('Cc1n[nH]c(C2CN(C(=O)CCc3ccsc3)CCO2)n1 (stereo not drawn)', 'Percent Effect', '0.78%'),
  ('Cc1nn(C)c(N2CCOCC2)c1CNC1CCc2ccccc2C1 (stereo not drawn)', 'Percent Effect', '9.25%'),
  ('CCc1cc(NCC(O)CN2CCCCC2)n2ncnc2n1 (stereo not drawn)', 'Percent Effect', '4.78%'),
  ('CC(NC(=O)c1ccc2c(c1)OCC(=O)N2)c1ccccc1F (stereo not drawn)', 'Percent Effect', '2%'),
  ('CN(C)C(=O)CN1C[C@@H]2CC[C@H](C1)N(Cc1cccc(Cl)c1Cl)C2', 'Percent Effect', '-0.255%'),
  ('Cn1cc(CNc2ncnc3c2CCN(Cc2ccsc2)CC3)cn1', 'Percent Effect', '29.3%'),
  ('Fc1ccc(CCN2CCC(c3nnc(-c4cccnc4)o3)CC2)cc1', 'Percent Effect', '-6.66%'),
  ('Cc1cc(NC(=O)CCc2ccsc2)n(C)n1', 'Percent Effect', '-1.11%'),
  ('Cn1ccnc1CN1CC[C@@H](NS(C)(=O)=O)[C@@H]1Cc1cccnc1', 'Percent Effect', '-7.99%'),
  ('CCc1nc(CN2CCCN(Cc3cnn(C)c3)CC2)no1', 'Percent Effect', '0.0732%'),
  ('O=C(CCc1cccs1)N1CCC(Nc2cccnn2)CC1', 'Percent Effect', '4.64%'),
  ('O=C(COc1cccc2c1CCC2=O)NCCSc1ccccc1', 'Percent Effect', '-2.93%'),
  ('Cc1cc(CNCc2c(C)nn(C)c2N2CCOCC2)no1', 'Percent Effect', '7.93%'),
  ('COCCOc1ccc(NC(=O)N2CCCC2c2cc(C)no2)cn1 (stereo not drawn)', 'Percent Effect', '5.01%'),
  ('CCOCC(=O)N1CCC(Oc2ccc(C(F)(F)F)cn2)CC1', 'Percent Effect', '4.76%'),
  ('Cc1nnc(Nc2cccc(C3CCN(CCO)CC3)n2)s1', 'Percent Effect', '-2.96%'),
  ('COc1c(C)cnc(CN2CCCCC2Cn2nc(C)nc2C)c1C (stereo not drawn)', 'Percent Effect', '-6.46%'),
  ('COc1ccc(C(=O)N2CCCCC2Cn2cccn2)c(F)c1 (stereo not drawn)', 'Percent Effect', '6.84%'),
  ('Cc1cnn(CC2CN(CCN3CCCC3=O)CCO2)c1 (stereo not drawn)', 'Percent Effect', '8.1%'),
  ('Cc1nc(C)n(C2CCCN(C(=O)c3sccc3C3CC3)C2)n1 (stereo not drawn)', 'Percent Effect', '-3.81%'),
  ('O=C(Nc1cccc(OCc2cccc(F)c2)c1)C1COCCO1 (stereo not drawn)', 'Percent Effect', '1.36%'),
  ('CC(C)(C)NC(=O)CN1CCN(C(=O)Nc2ccc(F)cc2F)CC1', 'Percent Effect', '-2.38%'),
  ('O=C(c1cc(Cl)cc(Cl)c1)N1CCN(c2nccs2)CC1', 'Percent Effect', '6.34%'),
  ('Cc1ccc(C(=O)O)cc1S(=O)(=O)Nc1nn(-c2ccccc2)cc1C', 'Percent Effect', '0.854%'),
  ('Cn1cc(CN2CCCN(C(=O)c3ccc4c(c3)COC4)CC2)cn1', 'Percent Effect', '13.2%'),
  ('Cc1ccccc1C1CCCN1C(=O)CN1CC2(CCNCC2)OC1=O (stereo not drawn)', 'Percent Effect', '12.1%'),
  ('COCCN1CC[C@@H]2OC[C@H](C(=O)NCc3cccs3)C[C@@H]2C1', 'Percent Effect', '-15.8%'),
  ('O=C1COC2(COCCN(Cc3cccnc3)C2)CN1c1ccoc1 (stereo not drawn)', 'Percent Effect', '0.684%'),
  ('CN(CCc1ccccc1)Cc1cc(C(=O)N2CCN(C)C(=O)C2)no1', 'Percent Effect', '11%'),
  ('CC(C)c1nc2c(n1C)CCN(Cc1nc(-c3cccs3)no1)C2', 'Percent Effect', '3.18%'),
  ('COCCNc1ccc(CNC(=O)Nc2cn[nH]c2)cc1', 'Percent Effect', '0.901%'),
  ('CC(C)c1nc(CN(C)CC2CCN(CCO)CC2)no1', 'Percent Effect', '0.371%'),
  ('Cc1nn(C)c(C)c1NC(=O)CN1CCCC1c1noc(C2CC2)n1 (stereo not drawn)', 'Percent Effect', '1.88%'),
  ('CSc1cccc(CN(C)C(=O)C2CC(=O)N(CCN(C)C)C2)c1 (stereo not drawn)', 'Percent Effect', '4.56%'),
  ('O=C(Cn1cnc(NC(=O)CC2CCCC2)n1)NCc1ccccc1', 'Percent Effect', '8.52%'),
  ('CSCCCN1CCn2nc(CNC(C)=O)cc2C1', 'Percent Effect', '4.06%'),
  ('CCn1ccc(C(=O)NCCCN2CCOCC2)n1', 'Percent Effect', '4.7%'),
  ('COc1ncccc1C(=O)NCC(C)Oc1cccnc1 (stereo not drawn)', 'Percent Effect', '2.58%'),
  ('Cc1cnn(CC2CN(Cc3nnc(-c4occc4C)o3)CCO2)c1 (stereo not drawn)', 'Percent Effect', '-3.99%'),
  ('CCc1ccc(CCC(=O)N2CCOCC2c2ncon2)cc1 (stereo not drawn)', 'Percent Effect', '1.5%'),
  ('CCc1cc(=O)[nH]c2nnc(SCC(=O)OC)n12', 'Percent Effect', '-14.2%'),
  ('Cc1ccc(C)c(NC(=O)c2n[nH]c(-n3cnnc3)n2)c1', 'Percent Effect', '8.26%'),
  ('Cc1cc(C)c(CNC(=O)C2CCCN(c3cnccn3)C2)c(=O)[nH]1 (stereo not drawn)', 'Percent Effect', '10.1%'),
  ('CCNS(=O)(=O)c1ccc(C)c(C(=O)N(C)Cc2ccco2)c1', 'Percent Effect', '0.221%'),
  ('COc1ccccc1OCCC(=O)N1CCCC1Cn1cc(C)cn1 (stereo not drawn)', 'Percent Effect', '5.19%'),
  ('Cc1nn(C)c(N(C)C)c1CNCc1ccccc1Cn1cncn1', 'Percent Effect', '1.64%'),
  ('CC(=O)NCCNC(=O)c1cnc(-c2ccccc2)nc1', 'Percent Effect', '11.7%');
